Every entry's value here was drawn from paper PMC12416549.

Molecular target: T1, TNFR1 (Homo sapiens, UniProt P19438)
T1 chain: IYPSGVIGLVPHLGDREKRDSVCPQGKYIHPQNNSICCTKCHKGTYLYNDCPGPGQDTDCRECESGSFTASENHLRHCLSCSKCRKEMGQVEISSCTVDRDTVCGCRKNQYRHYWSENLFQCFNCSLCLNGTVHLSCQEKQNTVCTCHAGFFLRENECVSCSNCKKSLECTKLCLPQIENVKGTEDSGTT
Assay: yeast display SC50
ASSAY READOUT: apparent Kd (screen) (pM)

The cases that follow already have their apparent Kd (screen) on record.
A90F (designed binder) MTLQELLREEALRRAEAEAFRYALELLAEKFPEQKEYLLDLAEEIESQIRSLSGVDVEDVRKFLDKEWAWVKELLAEHPAELAEVEAARFARLAELRAEVEAKVAA    869
R92F (designed binder) MTLQELLREEALRRAEAEAFRYALELLAEKFPEQKEYLLDLAEEIESQIRSLSGVDVEDVRKFLDKEWAWVKELLAEHPAELAEVEAARAAFLAELRAEVEAKVAA    490

I: D59I (designed binder) MTLQELLREEALRRAEAEAFRYALELLAEKFPEQKEYLLDLAEEIESQIRSLSGVDVEIVRKFLDKEWAWVKELLAEHPAELAEVEAARAARLAELRAEVEAKVAA
II: R13N (designed binder) MTLQELLREEALNRAEAEAFRYALELLAEKFPEQKEYLLDLAEEIESQIRSLSGVDVEDVRKFLDKEWAWVKELLAEHPAELAEVEAARAARLAELRAEVEAKVAA
Inquiry: # argmax over apparent Kd (screen) for candidates I and II Respond using the label that marks the chosen record.
Reply text: II
